target: KRas G12D (Homo sapiens (Human), UniProt P01116, G12D); assay: KRas G12D Binding Assay (TR-FRET displacement of Cy5 labelled tracer); settings: GDP-loaded KRAS G12D (amino acids 1:169), 60 minute incubation at 22° C.
Sequence (P01116 other isoform, or with tags, fused parts or gaps G12D): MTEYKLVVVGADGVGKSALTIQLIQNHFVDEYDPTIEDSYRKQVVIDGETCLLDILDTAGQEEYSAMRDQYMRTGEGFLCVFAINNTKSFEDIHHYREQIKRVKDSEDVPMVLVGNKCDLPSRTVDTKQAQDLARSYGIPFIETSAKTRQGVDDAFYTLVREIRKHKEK
Can you tell me log10 IC50 for the items I'm about to list?
All values: base-10 log of IC50 in µM.

Find the measured log10 IC50: item Fc1c(-c2cccc(Cl)c2C(F)(F)F)ncc2c(N3C[C@H]4CC[C@@H](C3)N4)nc(OCC34CCCN3CCC4)nc12 , target or system KRas G12D (Homo sapiens (Human), UniProt P01116, G12D).
-2.03

Short answer please: log10 IC50, KRas G12D (Homo sapiens (Human), UniProt P01116, G12D), entry Oc1ccccc1-c1ncc2c(N3C[C@H]4CC[C@@H](C3)N4)nc(OCC34CCCN3CCC4)nc2c1F
0.51

Give the reported log10 IC50 for Fc1c(-c2cccc3c2CCC3)ncc2c(N3CC4CCC(C3)N4)nc(OC[C@@]34CCCN3C[C@H](F)C4)nc12 (system: KRas G12D (Homo sapiens (Human), UniProt P01116, G12D)).
-1.04

What value of log10 IC50 on KRas G12D (Homo sapiens (Human), UniProt P01116, G12D) does C=Cc1cccc2cccc(-c3ncc4c(N5C[C@H]6CC[C@@H](C5)N6)nc(OC[C@@H]5CCCN5C)nc4c3F)c12 have?
-1.15

Any idea what log10 IC50 came out for Cc1cc2sc(N)nc2c(-c2ncc3c(N4C[C@H]5CC[C@@H](C4)N5)nc(OC[C@@]45CCCN4C[C@H](F)C5)nc3c2F)c1C on KRas G12D (Homo sapiens (Human), UniProt P01116, G12D)?
-0.32

----------
target: KRas G12D (Homo sapiens (Human), UniProt P01116, G12D); assay: KRas G12D Binding Assay (TR-FRET displacement of Cy5 labelled tracer); details: GDP-loaded KRAS G12D (amino acids 1:169), 60 minute incubation at 22° C.
reported.property: pIC50
Formally, pIC50 is defined as -log10 of the concentration c, with c in mol/L.

Entry Fc1c(-c2c3ccccc3cc3[nH]ncc23)ncc2c(N3C[C@H]4CC[C@@H](C3)N4)nc(OCC34CCCN3CCC4)nc12 [Example 257] has what pIC50?
8.29

May I ask what pIC50 has been recorded for Cc1c(F)cccc1-c1ncc2c(N3C[C@H]4CC[C@@H](C3)N4)nc(OCC34CCCN3CCC4)nc2c1F [Example 294] ?
6.21

Using the record for Cc1cccc(-c2ncc3c(N4C[C@H]5CC[C@@H](C4)N5)nc(OCC45CCCN4CCC5)nc3c2F)c1C(C)C [Example 301] , report its pIC50.
7.45
